Target: Sulfhydryl oxidase 1 (Homo sapiens) (UniProt O00391)
Sequence (O00391 whole entry, looked up): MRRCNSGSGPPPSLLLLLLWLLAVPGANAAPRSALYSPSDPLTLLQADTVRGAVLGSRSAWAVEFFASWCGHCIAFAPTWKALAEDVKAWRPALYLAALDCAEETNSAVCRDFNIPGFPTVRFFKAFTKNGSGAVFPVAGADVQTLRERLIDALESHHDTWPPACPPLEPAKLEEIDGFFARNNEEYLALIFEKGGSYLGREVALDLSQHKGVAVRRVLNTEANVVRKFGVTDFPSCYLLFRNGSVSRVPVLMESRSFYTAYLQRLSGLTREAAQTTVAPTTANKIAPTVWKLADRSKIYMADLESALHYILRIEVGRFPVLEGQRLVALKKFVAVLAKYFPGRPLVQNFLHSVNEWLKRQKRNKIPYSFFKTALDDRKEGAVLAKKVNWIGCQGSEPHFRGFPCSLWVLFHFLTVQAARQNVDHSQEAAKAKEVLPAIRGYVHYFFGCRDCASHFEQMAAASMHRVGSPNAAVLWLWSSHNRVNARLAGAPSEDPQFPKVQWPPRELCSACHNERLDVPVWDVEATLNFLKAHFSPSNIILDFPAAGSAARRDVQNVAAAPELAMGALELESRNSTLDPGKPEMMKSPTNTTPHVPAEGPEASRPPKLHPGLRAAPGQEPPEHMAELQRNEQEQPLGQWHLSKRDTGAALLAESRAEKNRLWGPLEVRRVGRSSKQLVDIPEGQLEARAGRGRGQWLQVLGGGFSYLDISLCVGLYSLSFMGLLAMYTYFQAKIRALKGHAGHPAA
Assay: inhibition of human sulfhydryl oxidase QSOX1 – biochemical, ROS-Glo H2O2 luminescence, HTS, primary screen (AID 1347418)
Conditions: recombinant QSOX1, ROS-Glo H2O2 luminescence, at 12.5 µM, hits give high values; active = any value above zero unless noted
In all, about 1,300 compounds went through this assay and about 750 (58%) were called active. The list shows a part of the results.
observationType: inhibition

Recorded inhibition, per entry:
[
  {
    "molecule": "CC(=O)OCC1=C(C(=O)O)N2C(=O)[C@@H](NC(=O)CCC[C@@H](N)C(=O)O)[C@H]2SC1",
    "measuredValue": "-4.2% (inactive)"
  },
  {
    "molecule": "CN1CCc2cc(O)cc3c2[C@H]1Cc1ccc(O)c(O)c1-3",
    "measuredValue": "25.4% (active)"
  },
  {
    "molecule": "O=C(N[C@H]1CN2CCC1CC2)c1ccc(Cl)cc1",
    "measuredValue": "0.7% (active)"
  },
  {
    "molecule": "COc1ccc2c(c1)[C@@]13CCCC[C@H]1[C@@H](C2)NCC3",
    "measuredValue": "1.4% [setting not given] (active)"
  }
]

GET /value?item= NC(=O)c1ccc(OCC(O)CN2CC=C(c3ccc(F)cc3)CC2)cc1 (stereo unspecified) &field=inhibition returns 0.4% (active)

GET /value?item= NCC(CC(=O)O)c1ccc(Cl)cc1 (stereo unspecified) &field=inhibition returns 1.1% [setting not given] (active)

GET /value?item= NCC(CP(=O)(O)O)c1ccc(Cl)cc1 (stereo unspecified) &field=inhibition returns 0.1% (active)

GET /value?item= `C=CCN1CCc2cccc3c2[C@H]1Cc1ccc(O)c(O)c1-3` &field=inhibition returns 23.6% (active)

---

Biological target: Sulfhydryl oxidase 1 (Homo sapiens) (UniProt O00391)
Test: inhibition of human sulfhydryl oxidase QSOX1 – biochemical, ROS-Glo H2O2 luminescence, HTS, primary screen (AID 1347418)
Conditions: recombinant QSOX1, ROS-Glo H2O2 luminescence, at 12.5 µM, hits give high values; active = any value above zero unless noted
The whole screen tested about 1,300 compounds, of which about 750 (58%) were called active. The list shows a part of the results.
Write down one outcome, taken from active, inactive

Example entries begin here.
[
  {
    "molecule": "NC(Cn1oc(=O)[nH]c1=O)C(=O)O (configuration not stated)",
    "category": "active"
  },
  {
    "molecule": "CC[C@@H](CO)NC(=O)[C@@H]1C=C2c3cccc4[nH]cc(c34)C[C@H]2N(C)C1",
    "category": "active"
  },
  {
    "molecule": "N=C(N)c1ccc(CS(=O)(=O)F)cc1",
    "category": "inactive"
  },
  {
    "molecule": "Clc1ccc(N2CC3CCC(C2)N3)nn1",
    "category": "active"
  },
  {
    "molecule": "CC1=NN=C(c2ccc(N)cc2)c2cc3c(cc2C1)OCO3",
    "category": "active"
  },
  {
    "molecule": "CC(O)(CS(=O)(=O)c1ccc(F)cc1)C(=O)Nc1ccc(C#N)c(C(F)(F)F)c1 (configuration not stated)",
    "category": "inactive"
  },
  {
    "molecule": "COc1ccccc1N1CCNCC1",
    "category": "inactive"
  },
  {
    "molecule": "NCCc1ccc(O)cc1",
    "category": "inactive"
  }
]

IN: Recorded test outcome, item O=P1(N(CCCl)CCCl)NCCCO1 (configuration not stated)
OUT: active

IN: Recorded test outcome, item `CC[C@@H](CO)NC(=O)[C@@H]1C=C2c3cccc4c3c(cn4C)C[C@H]2N(C)C1`
OUT: active

IN: Recorded test outcome, item `Cc1cc([C@@H]2CCCN2C)on1`
OUT: active

IN: Recorded test outcome, item c1ccc(C2(c3ccccc3)CC2C2=NCCN2)cc1 (configuration not stated)
OUT: inactive

Origin of measurements: PubChem BioAssay AID1347418
